test system: NCI/ADR-RES; experiment: NCI tumour cell line growth inhibition, 48 h
Activity calls are given as the source filed them. Cut-off read from the data, not from the text of the source: active = GI50 up to about 1.1 µM and inactive = higher.
Response enum: active, inactive

These recorded examples may help you get a feel for the data.
Ask | Recorded call for `COc1ccc2c(c1)CCCc1cn[nH]c1-2` ?
Reply | inactive

Ask | Recorded call for `CCC(=O)Nc1ncnc2ncn(C(=O)CC)c12` ?
Reply | inactive

Ask | Recorded call for `Cc1cc(OCc2nc(N)nc(N)c2-c2ccc(Cl)c(Cl)c2)ccc1[N+](=O)[O-]` ?
Reply | active

Ask | Recorded call for COC(=O)C1CC23C4=C(CCC41)CCC1CN4CC(C)C(CC(OC(C)=O)C12COC(C)=O)C43O (stereo not given) ?
Reply | inactive

Ask | Recorded call for `CN(C)C1(c2cc3ccccc3s2)CCCCC1` ?
Reply | inactive

Ask | Recorded call for `O=C1C=CC(=O)c2c(O)ccc(O)c21` ?
Reply | inactive

Ask | Recorded call for COC(=O)c1ccccc1C1CN=NC12Cc1cc(C)ccc1C2=O (stereo not given) ?
Reply | inactive

Ask | Recorded call for `NC(=O)/C(=C\c1ccncc1)c1cccc2ccccc12` ?
Reply | inactive

***
Ask | Recorded call for `O=[N+]([O-])c1cccc(/C=N/N=c2\ccc3ccccc3[nH]2)c1O` ?
Reply | active

Ask | Recorded call for `CC(=O)OC/C=C\Cn1nc(Br)c(=O)[nH]c1=O` ?
Reply | inactive

Ask | Recorded call for CC(=O)NC1C(OCc2ccccc2)OC(CO)C(O)C1OC(C)C(=O)NC(C)C(=O)NC(CCC(=O)NCCCNc1c2ccccc2nc2cccc([N+](=O)[O-])c12)C(N)=O (stereo not given) ?
Reply | inactive

Ask | Recorded call for `CCn1c2c(c3ccccc3c1=O)C(=O)c1ccccc1-2` ?
Reply | inactive

Ask | Recorded call for `CC(=O)c1sc2c(c1OC(=O)c1ccccc1)c(=O)n(-c1ccccc1)c(=S)n2-c1ccccc1` ?
Reply | inactive

Ask | Recorded call for `COc1ccc2oc(=O)c(-c3nc4ccccc4o3)cc2c1` ?
Reply | inactive

Ask | Recorded call for `N#CS/C(Cl)=C(/C(Cl)=C(Cl)Cl)[N+](=O)[O-]` ?
Reply | inactive

Ask | Recorded call for CC(C)C1OC(=O)/C=C/C=C/C=C/C=C/C=C/CC(O)C(C)C(O)CC(O)CC(O)CC(O)CC(O)CC(O)CC(O)/C=C/C1C (stereo not given) ?
Reply | inactive

Ask | Recorded call for OCC1CCC(n2cnc3c(O)ncnc32)O1 (stereo not given) ?
Reply | inactive

====

tested on: NCI-H23; assay: NCI tumour cell line growth inhibition, 48 h
The source made the active and inactive calls. Rule as the data show it: active = GI50 up to about 1.1 µM and inactive = higher.
Quick list: GI50 per entry.

Ask | # get_value(readout='GI50', item= `Clc1cccc(-c2nc3cccc4c3n2Cc2ncccc2-4)c1` )
Reply | > 100 µM (inactive)

***
Ask | # get_value(readout='GI50', item= `Cc1cccc(N2C(=O)C(Cl)=C(Cl)C2=O)c1` )
Reply | > 69.2 µM (inactive)

Ask | # get_value(readout='GI50', item= `O=C(NS(=O)(=O)Nc1ccc(Cl)cc1)OCc1ccc(Cl)cc1Cl` )
Reply | 20.2 µM (inactive)

Ask | # get_value(readout='GI50', item= Nc1ccn(C2OC(C(OC3OC(CO)C(O)C(N)C3O)C(O)C(O)C(O)C(O)CO)C(N)C(O)C2O)c(=O)n1 (configuration not stated) )
Reply | > 100 µM (inactive)

====

system: TK-10; test: NCI tumour cell line growth inhibition, 48 h
Calls of active or inactive are those of the source. Cut-off read from the data, not from the text of the source: active = GI50 up to about 1.1 µM and inactive = higher.
Response enum: T = active, F = inactive

These recorded examples may help you get a feel for the data.
Ask | Recorded call for Cn1c(=O)c2nc[nH]c2n(C)c1=O [THEOPHYLLINE] ?
Reply | F

Ask | Recorded call for CN(C)CC1CCC/C(=C\c2ccc(N(C)C)cc2)C1=O (configuration not stated) ?
Reply | F

Ask | Recorded call for NC(Cc1ccc(OCc2ccccc2)cn1)C(=O)O (configuration not stated) ?
Reply | F

***
Ask | Recorded call for CSc1nc(Cl)c2c(n1)Sc1nc3cc4c(cc3n1C2O)OCCO4 (configuration not stated) ?
Reply | T

Ask | Recorded call for `NC(=O)Nc1ccc(C(=O)NCCCNC(=O)c2ccc(NC(N)=O)cc2)cc1` ?
Reply | F

Ask | Recorded call for OCC1CCC(n2cnc3c(O)ncnc32)O1 (configuration not stated) ?
Reply | F

Ask | Recorded call for `CCOc1cc2c(C(=O)CC)c(O)ccc2o1` ?
Reply | F

Ask | Recorded call for `CCOC(=O)c1sc2nc(SC)nc(Nc3ccc4c(c3)OCO4)c2c1N` ?
Reply | F

Ask | Recorded call for COC(=O)C1CC23C4=C(CCC41)CCC1CN4CC(C)C(CC(OC(C)=O)C12COC(C)=O)C43O (configuration not stated) ?
Reply | F

Ask | Recorded call for `CN1C(=O)c2c(c3c4ccccc4n(C)c3c3c2c2ccccc2n3C)C1=O` ?
Reply | F

====

system: SK-MEL-28; test: NCI tumour cell line growth inhibition, 48 h
Activity calls are given as the source filed them. No stated cut-off is given here; in the data, active = GI50 up to about 1.1 µM and inactive = higher.
Response enum: 1.0 for active, 0.0 for inactive

These recorded examples may help you get a feel for the data.
Ask | Recorded call for `Oc1cc(O)c(Oc2cccc(O)c2O)c(O)c1` ?
Reply | 0.0

Ask | Recorded call for `CCCc1nc(Cl)c(Cl)c(Cl)n1` ?
Reply | 0.0

Ask | Recorded call for `COc1ccc2[nH]c3c(C)c4ccnc(NCCCN(C)CCCNc5ccc6nnn7c8ccccc8c(=O)c5c67)c4c(C)c3c2c1` ?
Reply | 0.0

Ask | Recorded call for `CC(C)=CCC[C@@H](C)C1=C(Nc2ccccc2Cl)C(=O)C(C)=C(O)C1=O` ?
Reply | 0.0

Ask | Recorded call for `CC1(C)OCN(c2ccc(Cl)cc2)Cn2c1nc1ccccc12` ?
Reply | 0.0

***
Ask | Recorded call for O=C1c2ccccc2C2(O)Nc3c(ccc4ccccc34)C12O (stereo unspecified) ?
Reply | 0.0

Ask | Recorded call for C=CCN1CCC(O)(c2cc(C(=O)OCC)[nH]c2-c2cc(C)no2)C1 (stereo unspecified) ?
Reply | 0.0

Ask | Recorded call for `O=c1c(C(c2cnc3ccccc3c2)c2c(O)oc3ccccc3c2=O)c(O)oc2ccccc12` ?
Reply | 0.0

Ask | Recorded call for CC(=O)OCC1OC(OC(C)=O)C(NC#N)C(OC(C)=O)C1OC(C)=O (stereo unspecified) ?
Reply | 0.0

Ask | Recorded call for `CC(=O)OC/C=C\Cn1nc(Br)c(=O)[nH]c1=O` ?
Reply | 0.0

Ask | Recorded call for `CC[C@](O)(CC(=O)O[C@H]1C(=O)O[C@@H]2C[C@H]3C(C)=CC(=O)[C@@H](O)[C@]3(C)[C@H]3[C@@]4(O)OC[C@]32[C@@H]1[C@@H](C)[C@H]4O)C(C)C` ?
Reply | 1.0

====

system: SK-OV-3; experiment: NCI tumour cell line growth inhibition, 48 h
Calls of active or inactive are those of the source. Cut-off read from the data, not from the text of the source: active = GI50 up to about 1.1 µM and inactive = higher.
Response enum: true (1) for active, false (0) for inactive

These recorded examples may help you get a feel for the data.
Ask | Recorded call for `N#CS/C(Cl)=C(/C(Cl)=C(Cl)Cl)[N+](=O)[O-]` ?
Reply | false (0)

Ask | Recorded call for CCN(CC)CC(C(C)=O)C(c1ccccc1)c1c(O)c2ccccc2oc1=O (stereo not given) ?
Reply | false (0)

Ask | Recorded call for `CCCCCCOc1ccc(C(=O)NOCc2ccccc2)cc1` ?
Reply | false (0)

***
Ask | Recorded call for O=C(CC(=O)N1N=C(n2ccc3ccccc32)CC1c1ccccc1)Nc1cccc(Cl)c1 (stereo not given) ?
Reply | false (0)

Ask | Recorded call for CC(Br)C(=O)c1ccc2cc(Br)c3ccccc3c2c1 (stereo not given) ?
Reply | false (0)

Ask | Recorded call for `CC(=O)C1=C(O)/C(=C\c2ccco2)OC1=O` ?
Reply | false (0)

Ask | Recorded call for `O=C(c1cccs1)N(Cc1cccnc1)C(=S)N(Cc1cccnc1)C(=O)c1cccs1` ?
Reply | false (0)

Ask | Recorded call for `Cc1c2c(nc3ccccc13)C(=O)c1cccnc1C2=O` ?
Reply | false (0)

Ask | Recorded call for `COc1cc2cnc3c4cc(O)ccc4ccc3c2cc1OC` ?
Reply | false (0)

Ask | Recorded call for CSc1ccc(NC(=O)C2CCCCC2C(=O)O)cc1 (stereo not given) ?
Reply | false (0)

Ask | Recorded call for CCC(C)c1cccc(C)c1NC(=O)C(=O)Cc1nc2ccccc2s1 (stereo not given) ?
Reply | false (0)

====

system: SF-539; experiment: NCI tumour cell line growth inhibition, 48 h
Active and inactive are the calls of the source. Rule as the data show it: active = GI50 up to about 1.1 µM and inactive = higher.
Response enum: yes (1) for active, no (0) for inactive

These recorded examples may help you get a feel for the data.
Ask | Recorded call for CCN(CC)CC(C(C)=O)C(c1ccccc1)c1c(O)c2ccccc2oc1=O (configuration not stated) ?
Reply | no (0)

Ask | Recorded call for `O=C(CC(=O)c1ccccc1)C(=O)NC12CC3CC(CC(C3)C1)C2` ?
Reply | no (0)

***
Ask | Recorded call for `CCN(CC)CCNc1ccc([N+](=O)[O-])c2nc3ccccc3c(N)c12` ?
Reply | yes (1)

Ask | Recorded call for `Cc1[nH]c(=O)nc(N/N=C/c2ccc(Cl)cc2)c1C(=O)Nc1ccc(Cl)cc1` ?
Reply | no (0)
